System: horse erythrocytes
METHOD SUMMARY: Hemolysis assay
Assay type: cell-based
SETTINGS: erythrocytes, 37 °C, 2 h
Residues, ends and D or L forms follow the SMILES beside them.
MEASURED ATTRIBUTE: HC10 (10% hemolytic concentration) (µM)
# unit: µM | format: bare number

**Q:** I have this molecule here, CC[C@H](C)[C@H](NC(=O)[C@H](CCCNC(=N)N)NC(=O)[C@@H]1CCCN1C(=O)[C@H](CC(C)C)NC(=O)[C@@H](N)CCCNC(=N)N)C(=O)N[C@@H](CC(C)C)C(=O)N[C@@H](CCCNC(=N)N)C(=O)N[C@@H](CCCCN)C(=O)N[C@H](C(=O)N[C@H](C(=O)N[C@@H](CCCNC(=N)N)C(=O)N[C@@H](C)C(=O)N[C@@H](CC(C)C)C(N)=O)C(C)C)[C@@H](C)CC [Crabrolin-FR, RLPRILRKIVRAL-NH2] (H-RLPRILRKIVRAL-NH2) , and I need its recorded HC10 (10% hemolytic concentration).
**A:** 18.082

====

Quick list: HC50 (50% hemolytic concentration) per entry.
Tested on: horse erythrocytes
METHOD SUMMARY: Hemolysis assay
Type: cell-based
SETTINGS: erythrocytes, 37 °C, 2 h
Residues, ends and D or L forms follow the SMILES beside them.

Answered examples (2):
INSERT INTO measurements (compound, measured_attribute, observed_measurement) VALUES
  ('CC[C@H](C)[C@H](NC(=O)[C@H](CC(C)C)NC(=O)[C@@H]1CCCN1C(=O)[C@H](CC(C)C)NC(=O)[C@@H](N)Cc1ccccc1)C(=O)N[C@@H](CC(C)C)C(=O)N[C@@H](CCCNC(=N)N)C(=O)N[C@@H](CCCCN)C(=O)N[C@H](C(=O)N[C@H](C(=O)N[C@H](C(=O)N[C@@H](C)C(=O)N[C@@H](CC(C)C)C(N)=O)[C@@H](C)O)C(C)C)[C@@H](C)CC [Crabrolin, FLPLILRKIVTAL-NH2] (H-FLPLILRKIVTAL-NH2)', 'HC50 (50% hemolytic concentration)', '120.654 µM'),
  ('CC[C@H](C)[C@H](NC(=O)[C@H](CCCCN)NC(=O)[C@@H]1CCCN1C(=O)[C@H](CC(C)C)NC(=O)[C@@H](N)Cc1ccccc1)C(=O)N[C@@H](CC(C)C)C(=O)N[C@@H](CCCNC(=N)N)C(=O)N[C@@H](CCCCN)C(=O)N[C@H](C(=O)N[C@H](C(=O)N[C@H](C(=O)N[C@@H](C)C(=O)N[C@@H](CC(C)C)C(N)=O)[C@@H](C)O)C(C)C)[C@@H](C)CC [Crabrolin-4K, FLPKILRKIVTAL-NH2] (H-FLPKILRKIVTAL-NH2)', 'HC50 (50% hemolytic concentration)', '217.816 µM');

// below: HC50 (50% hemolytic concentration) requested for another compound
**Q:** Requested read-out HC50 (50% hemolytic concentration), target or system horse erythrocytes, entry CC[C@H](C)[C@H](NC(=O)[C@H](CCCNC(=N)N)NC(=O)[C@@H]1CCCN1C(=O)[C@H](CC(C)C)NC(=O)[C@@H](N)Cc1ccccc1)C(=O)N[C@@H](CC(C)C)C(=O)N[C@@H](CCCNC(=N)N)C(=O)N[C@@H](CCCCN)C(=O)N[C@H](C(=O)N[C@H](C(=O)N[C@@H](CCCNC(=N)N)C(=O)N[C@@H](C)C(=O)N[C@@H](CC(C)C)C(N)=O)C(C)C)[C@@H](C)CC [Crabrolin-TR, FLPRILRKIVRAL-NH2] (H-FLPRILRKIVRAL-NH2)
**A:** 211.927 µM

Values compiled from paper PMC10572522.
